target: human M1 receptor (hCHRM1) (Homo sapiens); construct: expressed in transfected cells; experiment: Measurement of M1 receptor positive allosteric modulator (M1PAM) activity, calcium fluorescence in CHO-K1 cells; type: cell-based; settings: 10 μM test compound with acetylcholine at EC20; 100% = acetylcholine 1 μM, 0% = DMSO
Could you please report measured activity (%) at 10 μM for the items listed next?
Numbers only, in %.

O=C1c2c(ccnc2OCC(F)F)CN1Cc1ccc(-c2cnn(CC(F)(F)F)c2)cc1 = 106
CCn1cc(-c2ccc(CN3Cc4ncnc(OCC(F)(F)F)c4C3=O)cc2)cn1 = 98

Give activity (%) at 10 μM for all molecules that follow.
1. Cn1ccc(-c2ccc(CN3Cc4ncnc(OCC(F)(F)F)c4C3=O)c(F)c2)n1
2. Cc1nn(C)cc1-c1cc(F)c(CN2Cc3ncnc(OCC(F)F)c3C2=O)s1
3. CCn1cc(-c2ccc(CN3Cc4ncnc(OCC(F)F)c4C3=O)cc2)cn1
4. CC(F)(F)COc1nccc2c1C(=O)N(Cc1ccc(-c3cnn(C4CC4)c3)cc1)C2
5. CCn1cc(-c2ccc(CN3Cc4ccnc(OCC(C)(F)F)c4C3=O)cc2)cn1
6. Cc1nn(C)cc1-c1ccc(CN2Cc3ncnc(OCC(C)(C)F)c3C2=O)cc1

Key:
[102, 100, 108, 99, 96, 105]

###

molecular target: human M1 receptor (hCHRM1) (Homo sapiens); construct: expressed in transfected cells; assay: Measurement of M1 receptor positive allosteric modulator (M1PAM) activity, calcium fluorescence in CHO-K1 cells; assay type: cell-based; conditions: 10 μM test compound with acetylcholine at EC20; 100% = acetylcholine 1 μM, 0% = DMSO
value type: activity (%) at 10 μM

Cc1nn(C)cc1-c1ccc(CN2Cc3ncnc(OCC(F)F)c3C2=O)cc1 = 106%
CCC(F)(F)COc1nccc2c1C(=O)N(Cc1ccc(-c3cn[nH]c3)cc1)C2 = 90%
CCC(F)(F)COc1nccc2c1C(=O)N(Cc1ccc(-c3ccn(C)n3)cc1F)C2 = 104%

Exercise: Output measured activity (%) at 10 μM for this item: CCC(F)(F)COc1ncnc2c1C(=O)N(Cc1ccc(-c3cn(C)nc3C)cc1F)C2
Key: 101%

###

target: human M1 receptor (hCHRM1) (Homo sapiens, UniProt P11229); construct: expressed in transfected cells; test: Measurement of M1 receptor positive allosteric modulator (M1PAM) activity, calcium fluorescence in CHO-K1 cells; type: cell-based; conditions: inflection point in the concentration-dependent curve; acetylcholine at EC20 (final 0.6-0.8 nM); CHO-K1 cells expressing human M1; Fluo-4, FLIPRtetra; read-out: IP value;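 as to pEC50: potency reported as IP value in nM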
Sequence (P11229 whole entry): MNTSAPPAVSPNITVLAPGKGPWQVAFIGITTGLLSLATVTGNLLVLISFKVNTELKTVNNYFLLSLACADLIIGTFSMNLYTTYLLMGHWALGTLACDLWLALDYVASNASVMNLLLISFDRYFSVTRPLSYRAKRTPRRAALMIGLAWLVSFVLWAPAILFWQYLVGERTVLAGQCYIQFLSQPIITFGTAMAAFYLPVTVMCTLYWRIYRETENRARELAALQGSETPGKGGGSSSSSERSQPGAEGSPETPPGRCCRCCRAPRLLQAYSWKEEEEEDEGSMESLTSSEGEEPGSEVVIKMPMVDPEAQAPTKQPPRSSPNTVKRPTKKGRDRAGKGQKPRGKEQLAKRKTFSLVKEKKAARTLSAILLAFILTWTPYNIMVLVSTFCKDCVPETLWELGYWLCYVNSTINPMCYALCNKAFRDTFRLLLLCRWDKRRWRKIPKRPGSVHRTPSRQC
Consider the following molecules; for each one, report its pEC50.
One number for each entry, as −log10 of the molar value.

Before answering, review these 3 worked examples.
Cc1nn(C)cc1-c1ccc(CN2Cc3ncnc(OCC(C)(C)F)c3C2=O)c(F)c1 [Example 46] = 8.28
Cc1nn(C)cc1-c1ccc(CN2Cc3ccnc(OCC(F)F)c3C2=O)c(F)c1 [Example 112] = 7.39
CCC(F)(F)COc1ncnc2c1C(=O)N(Cc1ccc(-c3cnn(C)c3)cc1)C2 [Example 75] = 7.89

# input for lookup
Exercise: Check the records and state pEC50 for CCC(F)(F)COc1ncnc2c1C(=O)N(Cc1ccc(C(=O)NC)cc1)C2 [Example 10]
Key: 7.48
